- TARGET_OR_SYSTEM: DD(E) (Homo sapiens, UniProt P02671+P02675+P02679)
- Construct: host or cells: purchased fibrinogen clotted with thrombin, digested with plasmin, then purified by ammonium sulfate cuts and Sephacryl S200
- Sequence (P02671 130-216): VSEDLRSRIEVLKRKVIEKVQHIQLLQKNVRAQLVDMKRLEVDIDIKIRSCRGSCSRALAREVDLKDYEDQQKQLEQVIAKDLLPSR
- Sequence (P02675 164-491): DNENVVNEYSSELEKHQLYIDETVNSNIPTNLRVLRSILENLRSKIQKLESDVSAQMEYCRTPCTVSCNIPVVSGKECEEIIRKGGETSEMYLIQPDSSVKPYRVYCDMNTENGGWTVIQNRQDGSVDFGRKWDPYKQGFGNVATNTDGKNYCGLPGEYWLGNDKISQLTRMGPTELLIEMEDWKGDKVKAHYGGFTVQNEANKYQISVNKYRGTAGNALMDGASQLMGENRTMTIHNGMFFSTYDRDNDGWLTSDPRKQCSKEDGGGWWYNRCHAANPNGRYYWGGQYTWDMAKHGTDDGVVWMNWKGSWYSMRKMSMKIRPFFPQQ
- Sequence (P02679 114-432): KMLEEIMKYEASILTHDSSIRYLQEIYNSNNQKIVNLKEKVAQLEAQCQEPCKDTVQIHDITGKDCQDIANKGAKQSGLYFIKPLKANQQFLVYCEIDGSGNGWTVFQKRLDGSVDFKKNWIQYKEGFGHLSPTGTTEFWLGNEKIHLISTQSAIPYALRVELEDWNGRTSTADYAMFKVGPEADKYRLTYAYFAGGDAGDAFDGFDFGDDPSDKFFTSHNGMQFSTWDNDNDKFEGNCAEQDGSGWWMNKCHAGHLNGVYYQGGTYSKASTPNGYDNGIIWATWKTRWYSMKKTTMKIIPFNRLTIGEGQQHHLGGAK
- Sequence (P02671 36-97): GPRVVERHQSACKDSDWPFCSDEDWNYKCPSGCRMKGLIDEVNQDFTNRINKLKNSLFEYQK
- Sequence (P02675 45-152): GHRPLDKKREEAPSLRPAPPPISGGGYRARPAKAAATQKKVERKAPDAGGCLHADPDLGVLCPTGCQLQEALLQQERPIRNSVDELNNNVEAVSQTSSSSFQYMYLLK
- Sequence (P02679 27-88): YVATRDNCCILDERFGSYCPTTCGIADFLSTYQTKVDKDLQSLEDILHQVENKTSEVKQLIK
- PROTOCOL_DESCRIPTION: dissociation constant against fibrin-derived polypeptide DD(E)
- Type: binding
- CONDITION_PARAMETERS: read-out: Kd DD(E)
- Experimental: The soluble fibrin-derived polypeptide DD(E) was prepared following a modification of a published method (Moskoitz and Budzynksi, Biochemistry, 33: 12937-12944 (1994) and references therein). Fibrinogen containing a Factor XIII trace impurity (1 g, Grade L; purchased from American Diagnostica) was dissolved in TBS buffer and dialyzed overnight against TBS containing 5 mM citrate. […] Dissociation constants were determined against DD(E) as described above.
Bridge positions count the residues as written; N and C are the ends. Peptide text beside a SMILES is read from it.
In this section, each of the molecules is paired with its reported log10(Kd).
ATTRIBUTE_MEASURED: log10(Kd) (log10 of the value in µM)

* CC(C)C[C@H](NC(=O)[C@@H]1CSSC[C@H](NC(=O)[C@H](C)NC(=O)[C@@H](N)Cc2ccccc2)C(=O)N[C@@H](Cc2c[nH]cn2)C(=O)N[C@@H](Cc2ccc(O)cc2)C(=O)N[C@@H](Cc2ccc(O)cc2)C(=O)NCC(=O)N[C@@H]([C@@H](C)O)C(=O)N1)C(=O)N[C@@H](Cc1c[nH]cn1)C(N)=O [SEQ ID NO: 7, FACHYYGTCLH] (H-FACHYYGTCLH-NH2; disulfide 3-9) | 0.86
* CC(C)C[C@H](NC(=O)[C@@H]1CSSC[C@H](N)C(=O)N[C@@H](CC(=O)O)C(=O)N[C@@H](Cc2ccc(O)cc2)C(=O)N[C@@H](Cc2ccc(O)cc2)C(=O)NCC(=O)N[C@@H]([C@@H](C)O)C(=O)N1)C(N)=O [compound 33] (H-CDYYGTCL-NH2; disulfide 1-7) | 1.34
* CC[C@H](C)[C@H](NC(=O)[C@H](Cc1c[nH]cn1)NC(=O)[C@@H]1CSSC[C@H](NC(=O)[C@H](Cc2c[nH]cn2)NC(=O)[C@H](Cc2ccccc2)NC(=O)CN)C(=O)N2CCC[C@H]2C(=O)N[C@@H](Cc2ccc(O)cc2)C(=O)N[C@@H](CC(=O)O)C(=O)N[C@@H](CC(C)C)C(=O)N1)C(=O)N[C@@H](CC(C)C)C(N)=O [SEQ ID NO: 57, GFHCPYDLCHIL] (H-GFHCPYDLCHIL-NH2; disulfide 4-9 (inferred); N-terminus and C-terminus assumed) | 0.83
* CC(C)C[C@H](NC(=O)[C@@H]1CSSC[C@H](NC(=O)[C@@H]2CCCN2C(=O)[C@@H](N)CCCNC(=N)N)C(=O)N[C@@H](CC(N)=O)C(=O)N[C@@H](Cc2ccc(O)cc2)C(=O)N[C@@H](Cc2ccc(O)cc2)C(=O)NCC(=O)N[C@@H]([C@@H](C)O)C(=O)N1)C(=O)N[C@@H](Cc1c[nH]cn1)C(N)=O [SEQ ID NO: 16, RPCNYYGTCLH] (H-RPCNYYGTCLH-NH2; disulfide 3-9) | 0.60
* CC(C)C[C@H](N)C(=O)N1CCC[C@H]1C(=O)N[C@H]1CSSC[C@@H](C(=O)N[C@@H](C)C(=O)N[C@@H](CC(=O)O)C(N)=O)NC(=O)[C@H]([C@@H](C)O)NC(=O)CNC(=O)[C@H](Cc2ccc(O)cc2)NC(=O)[C@H](Cc2ccc(O)cc2)NC(=O)[C@H](CC(=O)O)NC1=O [SEQ ID NO: 47, LPCDYYGTCAD] (H-LPCDYYGTCAD-NH2; disulfide 3-9) | 1.00
* CC(C)C[C@H](NC(=O)[C@@H]1CSSC[C@H](NC(=O)[C@@H]2CCCN2C(=O)[C@@H](N)CC(C)C)C(=O)N[C@@H](C)C(=O)N[C@@H](Cc2ccc(O)cc2)C(=O)N[C@@H](Cc2ccc(O)cc2)C(=O)NCC(=O)N[C@@H]([C@@H](C)O)C(=O)N1)C(=O)N[C@@H](CC(=O)O)C(N)=O [SEQ ID NO: 42, LPCAYYGTCLD] (H-LPCAYYGTCLD-NH2; disulfide 3-9) | 0.77
* C[C@@H](O)[C@@H]1NC(=O)CNC(=O)[C@H](Cc2ccc(O)cc2)NC(=O)[C@H](Cc2ccc(O)cc2)NC(=O)[C@H](CC(=O)O)NC(=O)[C@@H](NC(=O)[C@@H]2CCCN2C(=O)[C@@H](N)CCCNC(=N)N)CSSC[C@@H](C(=O)N[C@@H](Cc2ccccc2)C(=O)N[C@@H](CC(=O)O)C(N)=O)NC1=O [SEQ ID NO: 8, RPCDYYGTCFD] (H-RPCDYYGTCFD-NH2; disulfide 3-9) | 0.53
* C[C@@H](O)[C@@H]1NC(=O)CNC(=O)[C@H](Cc2ccc(O)cc2)NC(=O)[C@H](Cc2ccc(O)cc2)NC(=O)[C@H](CC(=O)O)NC(=O)[C@@H](N)CSSC[C@@H](C(N)=O)NC1=O [compound 34] (H-CDYYGTC-NH2; disulfide 1-7) | 1.58
